Assay system C. Krusei ATCC 6258; read-out recorded as MIC50.
metric_name: MIC50 (µg/mL)

Completed entries (count: 3):
{"columns": ["compound", "system_name", "display_unit", "MIC50"],
 "data": [
  ["CCCCCCCc1cc2c(=O)n(C[C@](O)(Cn3cncn3)c3ccc(F)cc3F)cnc2s1 [Formula 1b-03]", "C. Krusei ATCC 6258", "µg/mL", 1],
  ["CCCCCCc1cc2c(=O)n(C[C@](O)(Cn3cncn3)c3ccc(F)cc3F)cnc2s1 [Formula 1b-01]", "C. Krusei ATCC 6258", "µg/mL", 1],
  ["CCCCCc1cc2c(=O)n(C[C@](O)(Cn3cncn3)c3ccc(F)cc3F)cnc2s1 [Formula 1b-02]", "C. Krusei ATCC 6258", "µg/mL", 1]
]}

I. CCCc1cc2c(=O)n(C[C@](O)(Cn3cncn3)c3ccc(F)cc3F)cnc2s1 [Formula 1b-04]
II. OC(Cn1cncn1)(Cn1cncn1)c1ccc(F)cc1F [FLU, Fluconazole]
Between item I and item II , which reported MIC50 is smaller? Reply briefly: the label of your chosen item. I
(I: 1 µg/mL, II: 64 µg/mL)

---

The following compounds have recorded MIC50 on C. tropicalis ATCC 750.
metric_name: MIC50 (µg/mL)

{"columns": ["compound", "display_unit", "MIC50"],
 "data": [
  ["CCCCCc1cc2c(=O)n(C[C@](O)(Cn3cncn3)c3ccc(F)cc3F)cnc2s1 [Formula 1b-02]", "µg/mL", 0.06]
]}

A. OC(Cn1cncn1)(Cn1cncn1)c1ccc(F)cc1F [FLU, Fluconazole]
B. CCCCCCc1cc2c(=O)n(C[C@](O)(Cn3cncn3)c3ccc(F)cc3F)cnc2s1 [Formula 1b-01]
C. CCCc1cc2c(=O)n(C[C@](O)(Cn3cncn3)c3ccc(F)cc3F)cnc2s1 [Formula 1b-04]
D. CCCCCc1cc2c(=O)n(C[C@@](O)(Cn3cncn3)c3ccc(F)cc3F)cnc2s1 [Formula 1a-02]
E. CCCCCCCc1cc2c(=O)n(C[C@](O)(Cn3cncn3)c3ccc(F)cc3F)cnc2s1 [Formula 1b-03]
Put the entries in order of MIC50, starting with the largest number. Provide the labels, sequenced as the question asks. D, A, E, B, C
